Tested on: VchαCA
assayRemarks: biochemical
Assay type: biochemical
studyConditions: selectivity index hCA II over VchαCA
reportedEndpoint: SI [ KI hCA II/KI VchαCA ]

compound | reportedEndpoint | reported
NS(=O)(=O)c1ccc(NCCNc2ccc(Cl)cc2)cc1 [3a] | SI [ KI hCA II/KI VchαCA ] | 1.7
NS(=O)(=O)c1cccc(N2CCN(c3ccc(Cl)cc3)C2=O)c1 [13c] | SI [ KI hCA II/KI VchαCA ] | 21.0
NS(=O)(=O)c1cccc(N2CCN(c3ccccc3Br)C2=O)c1 [14c] | SI [ KI hCA II/KI VchαCA ] | 5.4
NS(=O)(=O)c1cccc(NCCNc2ccccc2Br)c1 [14a] | SI [ KI hCA II/KI VchαCA ] | 0.1
NS(=O)(=O)c1ccc(N2CCN(c3ccccc3Br)C2=O)cc1 [5c] | SI [ KI hCA II/KI VchαCA ] | 0.1
Cc1ccc(NCCNc2ccc(S(N)(=O)=O)cc2)cc1 [2a] | SI [ KI hCA II/KI VchαCA ] | 0.1
NS(=O)(=O)c1ccc(N2CCN(c3ccc(Cl)cc3)C2=O)cc1 [3c] | SI [ KI hCA II/KI VchαCA ] | 1.0
NS(=O)(=O)c1ccc(NCCNc2ccc(I)cc2)cc1 [4a] | SI [ KI hCA II/KI VchαCA ] | 9.9
CCCCNCC(=O)Nc1cccc(S(N)(=O)=O)c1 [15b] | SI [ KI hCA II/KI VchαCA ] | 0.6
NS(=O)(=O)c1cccc(NC(=O)CNc2ccc(Cl)cc2)c1 [13b] | SI [ KI hCA II/KI VchαCA ] | 0.4
CCCCNCCNc1ccc(S(N)(=O)=O)cc1 [9a] | SI [ KI hCA II/KI VchαCA ] | 1.0
